Tested on: S. typhimurium TA102
Test details: Bacterial mutagenicity, plate incorporation assay, TA102
Assay setup: 4 μg/plate; mean ± SD
Endpoint name: reversion colonies, TA102

{"Compound": "CN1CCN(c2ccc3nc(-c4ccc5nc(CCc6ccc(N(CCCl)CCCl)cc6)[nH]c5c4)[nH]c3c2)CC1", "Endpoint name": "reversion colonies, TA102", "Obs value": 340}
{"Compound": "CN1CCN(c2ccc3nc(-c4ccc5nc(CCCc6ccc(N(CCCl)CCCl)cc6)[nH]c5c4)[nH]c3c2)CC1", "Endpoint name": "reversion colonies, TA102", "Obs value": 342}
{"Compound": "CN1CCN(c2ccc3nc(-c4ccc5nc(-c6ccc(O)cc6)[nH]c5c4)[nH]c3c2)CC1 [Pibenzimol, reference compound]", "Endpoint name": "reversion colonies, TA102", "Obs value": 275}
{"Compound": "CN1CCN(c2ccc3nc(-c4ccc5nc(Cc6ccc(N(CCCl)CCCl)cc6)[nH]c5c4)[nH]c3c2)CC1", "Endpoint name": "reversion colonies, TA102", "Obs value": 297}

----------
Each entry below lists one item and its recorded reversion colonies, TA102 value.
Tested on: S. typhimurium TA102
Test details: Bacterial mutagenicity, plate incorporation assay, TA102
Assay setup: 20 μg/plate; mean ± SD

{"Compound": "CN1CCN(c2ccc3nc(-c4ccc5nc(CCCc6ccc(N(CCCl)CCCl)cc6)[nH]c5c4)[nH]c3c2)CC1 [Compound 5]", "reversion colonies, TA102": 368}
{"Compound": "CN1CCN(c2ccc3nc(-c4ccc5nc(CCCCCCc6ccc(N(CCCl)CCCl)cc6)[nH]c5c4)[nH]c3c2)CC1 [Compound 6]", "reversion colonies, TA102": 342}
{"Compound": "CN1CCN(c2ccc3nc(-c4ccc5nc(-c6ccc(N(CCCl)CCCl)cc6)[nH]c5c4)[nH]c3c2)CC1 [Compound 2]", "reversion colonies, TA102": 280}
{"Compound": "CN1CCN(c2ccc3nc(-c4ccc5nc(CCc6ccc(N(CCCl)CCCl)cc6)[nH]c5c4)[nH]c3c2)CC1 [Compound 4]", "reversion colonies, TA102": 429}
{"Compound": "CN1CCN(c2ccc3nc(-c4ccc5nc(-c6ccc(N(C)CCCl)cc6)[nH]c5c4)[nH]c3c2)CC1 [Compound 1]", "reversion colonies, TA102": 442}
{"Compound": "CN1CCN(c2ccc3nc(-c4ccc5nc(Cc6ccc(N(CCCl)CCCl)cc6)[nH]c5c4)[nH]c3c2)CC1 [Compound 3]", "reversion colonies, TA102": 304}
{"Compound": "CN1CCN(c2ccc3nc(-c4ccc5nc(-c6ccc(O)cc6)[nH]c5c4)[nH]c3c2)CC1 [Pibenzimol, reference compound]", "reversion colonies, TA102": 301}

----------
Tested on: S. typhimurium TA98
Test details: Bacterial mutagenicity, plate incorporation assay, TA98
Assay setup: 80 μg/plate; mean ± SD; square brackets: toxicity becoming apparent
The threshold is inclusive: reversion colonies, TA98 of exactly 60 counts as Y; values below receive N.

{"Compound": "CN1CCN(c2ccc3nc(-c4ccc5nc(-c6ccc(N(C)CCCl)cc6)[nH]c5c4)[nH]c3c2)CC1", "Assigned label": "Y"}
{"Compound": "CN1CCN(c2ccc3nc(-c4ccc5nc(-c6ccc(N(CCCl)CCCl)cc6)[nH]c5c4)[nH]c3c2)CC1", "Assigned label": "N"}
{"Compound": "CN1CCN(c2ccc3nc(-c4ccc5nc(CCCCCCc6ccc(N(CCCl)CCCl)cc6)[nH]c5c4)[nH]c3c2)CC1", "Assigned label": "Y"}
{"Compound": "CN1CCN(c2ccc3nc(-c4ccc5nc(-c6ccc(O)cc6)[nH]c5c4)[nH]c3c2)CC1 [Pibenzimol, reference compound]", "Assigned label": "Y"}
{"Compound": "CN1CCN(c2ccc3nc(-c4ccc5nc(Cc6ccc(N(CCCl)CCCl)cc6)[nH]c5c4)[nH]c3c2)CC1", "Assigned label": "Y"}
{"Compound": "CN1CCN(c2ccc3nc(-c4ccc5nc(CCCc6ccc(N(CCCl)CCCl)cc6)[nH]c5c4)[nH]c3c2)CC1", "Assigned label": "Y"}
